subjectOfTest: purified recombinant human alpha synuclein fibrils (human, UniProt P37840 1-140)
runDescription: SPR, Biacore T200, as in Example 3; Fab injected;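 also: ligands amine-coupled on CM5 chip flow cells, HBS-EP+ running buffer, kinetic data fitted with 1:1 model allowing local bulk contribution and global Rmax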
pKd: −log10 of the molar value.

{"binder": "6470 rabbit Fab with heavy chain mutation N99Q (Fab, V domains shown) VH: QSVEESGGRLVTPGTPLTLTCTVSGIDLSSHDMYWVRQAPGKGLEYIGAIYASGSTYYASWAKGRFTISKTSTTVDLKMTSLTTEDTATYFCARIHYGQSGGLWGQGTLVTVSS VL: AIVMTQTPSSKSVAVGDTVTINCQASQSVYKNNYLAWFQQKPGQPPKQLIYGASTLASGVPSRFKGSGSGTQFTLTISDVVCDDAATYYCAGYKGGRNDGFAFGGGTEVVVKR", "pKd": 7.37}
{"binder": "6470 rabbit Fab with heavy chain mutation S53N (Fab, V domains shown) VH: QSVEESGGRLVTPGTPLTLTCTVSGIDLSSHDMYWVRQAPGKGLEYIGAIYANGSTYYASWAKGRFTISKTSTTVDLKMTSLTTEDTATYFCARIHYGNSGGLWGQGTLVTVSS VL: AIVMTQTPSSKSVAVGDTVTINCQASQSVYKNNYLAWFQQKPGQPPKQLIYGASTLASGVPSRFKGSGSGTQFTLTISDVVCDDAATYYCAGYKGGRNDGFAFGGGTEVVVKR", "pKd": 7.30}
{"binder": "6470 rabbit Fab with light chain mutation N33K (Fab, V domains shown) VH: QSVEESGGRLVTPGTPLTLTCTVSGIDLSSHDMYWVRQAPGKGLEYIGAIYASGSTYYASWAKGRFTISKTSTTVDLKMTSLTTEDTATYFCARIHYGNSGGLWGQGTLVTVSS VL: AIVMTQTPSSKSVAVGDTVTINCQASQSVYKNKYLAWFQQKPGQPPKQLIYGASTLASGVPSRFKGSGSGTQFTLTISDVVCDDAATYYCAGYKGGRNDGFAFGGGTEVVVKR", "pKd": 8.15}
